Origin of measurements: patent US20070213291A1

- System: Jurkat human leukemia T cells
- test_description: Apoptosis by phosphatidylserine/annexin V-FITC flow cytometry
- Format: cell-based
- run_parameters: M. phlei murA derived sequences

>  <input_sequence>
GTGTGTTTGGT (unmodified DNA) [SEQ ID NO:81]

>  <% at cells in apoptosis, %>
23

$$$$
>  <input_sequence>
TTGTTTTTTTTG (unmodified DNA) [SEQ ID NO:83]

>  <% at cells in apoptosis, %>
16

$$$$
>  <input_sequence>
GGTTTTGTTTG (unmodified DNA) [SEQ ID NO:82]

>  <% at cells in apoptosis, %>
25

$$$$
>  <input_sequence>
AACCACAAGCCCAAC (DNA, backbone not given here) [SEQ ID NO:67]

>  <% at cells in apoptosis, %>
0

$$$$
